Assignment: determine reported protein stability index for the given variants.
B1: SEPHS2 (parent)
chain: KASGRFGLLQGTSAETSGGLLICL

Variants of: B1
test: protein stability index of a GFP-peptide fusion (GPS, HEK-293T) (PSI 1-6); higher = more stable;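 also: lentivirally expressed fusions sorted by FACS into six bins by GFP to DsRed ratio, PSI derived from sequencing read proportions per bin multiplied by bin number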
conditions: c terminus: a fixed tail appended
Give bare numbers.

// solved cases for protein stability index follow
* KASSRFGLLQGTSAETSGGLLICL [G4S] | 3.04
* KASGRFGLLQGTSAETSGGLNICL [L21N] | 2.94
* KASGRFGLLQGTSAETSGGLLICN [L24N] | 2.11
* KASGRFGLLQGTSAETSGGLLIFL [C23F] | 3.71
* KASPRFGLLQGTSAETSGGLLICL [G4P] | 1.95
* KASGRFGLLQGTSAERSGGLLICL [T16R] | 2.58

// batch mode: one protein stability index value per listed entry
1. KASGRFGLLQSTSAETSGGLLICL [G11S]
2. KASGRFGLLQGTSAEFSGGLLICL [T16F]
3. KASGRFGLLQGTSAETSGGLLIHL [C23H]

Reply text:
1: 1.86; 2: 3.47; 3: 4.17

// batch mode: one protein stability index value per listed entry
1. KASGRFGLLQGTSAETFGGLLICL [S17F]
2. KASGRFGLLQGTSAETSGGLRICL [L21R]
3. KASGRFGLLQGTSAETNGGLLICL [S17N]
4. KASGRFALLQGTSAETSGGLLICL [G7A]
5. KASGRFGLLQGTSAETSGGLLINL [C23N]

Reply text:
1. 2.78
2. 1.57
3. 2.67
4. 3.63
5. 1.79

// batch mode: one protein stability index value per listed entry
1. KASGRFGLLQGTSAETSGGLAICL [L21A]
2. KADGRFGLLQGTSAETSGGLLICL [S3D]
3. KASGRFGWLQGTSAETSGGLLICL [L8W]
4. KASGRKGLLQGTSAETSGGLLICL [F6K]
5. KASERFGLLQGTSAETSGGLLICL [G4E]
6. KASGRFGLLQGTSAETSNGLLICL [G18N]
7. KASGRFGYLQGTSAETSGGLLICL [L8Y]

Reply text:
[1.04, 2.07, 2.08, 1.79, 3.09, 2.2, 1.85]

// batch mode: one protein stability index value per listed entry
1. KASGRFGLLEGTSAETSGGLLICL [Q10E]
2. KASGRFGLLQGTSAETSGGGLICL [L20G]
3. KASGRFGLLQGTSADTSGGLLICL [E15D]
4. KASGRFGLLQGTSAETSGILLICL [G19I]
5. KASDRFGLLQGTSAETSGGLLICL [G4D]
6. KASGHFGLLQGTSAETSGGLLICL [R5H]
7. KASGRFGLLQGTSAEISGGLLICL [T16I]
8. KASGRFGLLQGTSAETSCGLLICL [G18C]

Reply text:
1. 2.2
2. 1.96
3. 2.1
4. 2.54
5. 2.9
6. 3.5
7. 2.5
8. 3.15
